Experiment: ELISA assay on laminarin-coated plates
Assay type: binding
Details: ELISA of supernatants of humanised mAbs
Each entry below carries its recorded Abs 405 nm.

{"molecule": "H1 K1: humanised mAb, first approach CDR-grafting; VH H1 (SEQ ID NO: 16), VL K1 (SEQ ID NO: 15) (antibody, V domains shown, VH-H1; VL-K1) VH: QVQLVQSGAEVKKPGASVKVSCKASGYTLSSYWMHWVRQAPGQGLEWMGIILPGSGSTSYAQKFQGRVTMTRDTSTSTVYMELSSLRSEDTAVYYCAREGWYFDVWGAGTTVTVSS VL: DVVMTQSPLSLPVTLGQPASISCRSSQSLLYSNGNTHLNWFQQRPGQSPRRLIYLVSNRDSGVPDRFSGSGSGTDFTLKISRVEAEDVGVYYCVQGTHFPYTFGGGTKLEIK", "Abs 405 nm": 0.35}
{"molecule": "H5 K3: humanised mAb combining heavy chain H5 (SEQ ID NO: 22) and light chain K3 (SEQ ID NO: 19) (antibody, V domains shown, VH-H5; VL-K3) VH: QVQLQQSGAELKKPGASVKISCKASGYTLSSYWLEWVRQRPGQGLEWIGEILPGSGSTNYNEKFKGRATFTADTSTNTAYMELSSLTSEDSAVYYCAREGWYFDVWGQGTTVTVSS VL: DIVMTQTPLSLSVTPGQPASISCKSSQSLLYSNGNTHLNWYLQRPGQSPQLLIYLVSNRASGVPDRFTGSGSGTDFTLKISRVEAEDVGVYYCVQGTHFPYTFGGGTKVEIK", "Abs 405 nm": 2.47}
{"molecule": "hmAb 2G8 H5/K1: humanised anti β-1,3 glucan mAb; heavy chain variable region H5 (SEQ ID NO: 22), light chain variable region K1 (SEQ ID NO: 15) (antibody, V domains shown, VH-H5; VL-K1) VH: QVQLQQSGAELKKPGASVKISCKASGYTLSSYWLEWVRQRPGQGLEWIGEILPGSGSTNYNEKFKGRATFTADTSTNTAYMELSSLTSEDSAVYYCAREGWYFDVWGQGTTVTVSS VL: DVVMTQSPLSLPVTLGQPASISCRSSQSLLYSNGNTHLNWFQQRPGQSPRRLIYLVSNRDSGVPDRFSGSGSGTDFTLKISRVEAEDVGVYYCVQGTHFPYTFGGGTKLEIK", "Abs 405 nm": 3.48}
{"molecule": "H5 K5: humanised mAb, third approach (Kabat); VH H5 (SEQ ID NO: 22), VL K5 (SEQ ID NO: 21) (antibody, V domains shown, VH-H5; VL-K5) VH: QVQLQQSGAELKKPGASVKISCKASGYTLSSYWLEWVRQRPGQGLEWIGEILPGSGSTNYNEKFKGRATFTADTSTNTAYMELSSLTSEDSAVYYCAREGWYFDVWGQGTTVTVSS VL: DIVMTQSPLSLPVTLGQPASISCKSSQSLLYSNGNTHLNWYQQRPGQSPRRLIYLVSKLDSGVPDRFSGSGSGTDFTLKISRVEAEDVGVYYCVQGTHFPYTFGGGTKLEIK", "Abs 405 nm": 1.61}
{"molecule": "H3 K1: humanised mAb combining heavy chain H3 (SEQ ID NO: 20) and light chain K1 (SEQ ID NO: 15) (antibody, V domains shown, VH-H3; VL-K1) VH: QVQLVQSGAEVKKPGASVKVSCKASGYTLSSYWIHWVRQAPGQGLEWIGWILPGSGSTNYAQKFQGKATITADKSTSTAYMELSSLRSEDTAVYYCAREGWYFDVWGQGTLVTVSS VL: DVVMTQSPLSLPVTLGQPASISCRSSQSLLYSNGNTHLNWFQQRPGQSPRRLIYLVSNRDSGVPDRFSGSGSGTDFTLKISRVEAEDVGVYYCVQGTHFPYTFGGGTKLEIK", "Abs 405 nm": 0.4}
{"molecule": "H5 K7: humanised mAb combining heavy chain H5 (SEQ ID NO: 22) and light chain K7 (SEQ ID NO: 25) (antibody, V domains shown, VH-H5; VL-K7) VH: QVQLQQSGAELKKPGASVKISCKASGYTLSSYWLEWVRQRPGQGLEWIGEILPGSGSTNYNEKFKGRATFTADTSTNTAYMELSSLTSEDSAVYYCAREGWYFDVWGQGTTVTVSS VL: DIVMTQSPLSLPVTLGQPASISCKSSQSLLYSNGNTHLNWYLQRPGQSPKRLIYLVSKLDSGVPDRFSGSGSGTDFTLKISRVEAEDVGVYYCVQGTHFPYTFGGGTKLEIK", "Abs 405 nm": 0.82}
{"molecule": "H6 K1: humanised mAb combining heavy chain H6 (SEQ ID NO: 24) and light chain K1 (SEQ ID NO: 15) (antibody, V domains shown, VH-H6; VL-K1) VH: QVQLQQSGAELKKPGASVKISCKASGYTLSSYWIHWVRQRPGQGLEWIGEILPGSGSTNYNEKFKGRATFTADTSTNTAYMELSSLTSEDSAVYYCAREGWYFDVWGQGTTVTVSS VL: DVVMTQSPLSLPVTLGQPASISCRSSQSLLYSNGNTHLNWFQQRPGQSPRRLIYLVSNRDSGVPDRFSGSGSGTDFTLKISRVEAEDVGVYYCVQGTHFPYTFGGGTKLEIK", "Abs 405 nm": 0.27}
